Please go through the items and note down their pIC50.
Procedure Details: Inhibition of HCV NS5B J4 delta 21 polymerase
Parameters: species or system Hepacivirus hominis
pIC50: −log10 of the molar value.

Given the compound "CNC(=O)[C@]1(CC(C)C)C[C@H](C(=O)O)[C@H](c2cccs2)N1C(=O)c1ccc(C(F)(F)F)cc1" , what is its reported pIC50?
< 4.70

Given the compound "CC(C)C[C@@]1(C(=O)NCc2ccccc2)C[C@H](C(=O)O)[C@H](c2cccs2)N1C(=O)c1ccc(C(F)(F)F)cc1" , what is its reported pIC50?
< 4.70

Given the compound "CCNC(=O)[C@]1(CC(C)C)C[C@H](C(=O)O)[C@H](c2cccs2)N1C(=O)c1ccc(C(F)(F)F)cc1" , what is its reported pIC50?
< 4.70

---

Procedure Details: Inhibition of HCV NS5B J4 delta 21 polymerase
Parameters: species or system Hepacivirus hominis
Result Type: pIC50
Please note pIC50 is a logarithmic value: minus log10 of concentration in mol/L. Answer with that number alone.

Given the molecule "CC(C)C[C@@]1(C(=O)O)C[C@H](C(=O)NS(C)(=O)=O)[C@H](c2nccs2)N1C(=O)c1ccc(C(C)(C)C)cc1" , what is its reported pIC50?
7.40

Given the molecule "CC(C)C[C@@]1(C(=O)O)C[C@H](C(=O)NCc2ccccc2)[C@H](c2nccs2)N1C(=O)c1ccc(C(C)(C)C)cc1" , what is its reported pIC50?
5.08

Given the molecule "CC(C)C[C@@]1(C(=O)O)C[C@H](C(N)=O)[C@H](c2cccs2)N1C(=O)c1ccc(C(C)(C)C)cc1" , what is its reported pIC50?
6.48

Given the molecule "CC(C)C[C@@]1(C(=O)O)C[C@H](C(=O)NS(C)(=O)=O)[C@H](c2cccs2)N1C(=O)c1ccc(C(F)(F)F)cc1" , what is its reported pIC50?
6.64

Given the molecule CC(C)C[C@@]1(C(=O)O)C[C@H](C(=O)O)[C@H](c2cccs2)N1C(=O)c1ccc(C(F)(F)F)cc1 (stereo in doubt; (-)1) , what is its reported pIC50?
4.74

Given the molecule "CC(C)C[C@@]1(C(=O)O)C[C@H](C(=O)NS(=O)(=O)c2ccccc2)[C@H](c2nccs2)N1C(=O)c1ccc(C(C)(C)C)cc1" , what is its reported pIC50?
6.30

Given the molecule CC(C)C[C@@]1(C(=O)O)C[C@H](C(N)=O)[C@H](c2cccs2)N1C(=O)c1ccc(C(F)(F)F)cc1 (stereo in doubt; 19) , what is its reported pIC50?
5.36

Given the molecule CC(C)C[C@@]1(C(=O)O)C[C@H](C(N)=O)[C@H](c2nccs2)N1C(=O)c1ccc(C(C)(C)C)cc1 (stereo in doubt; (-)32) , what is its reported pIC50?
5.60

Given the molecule "CC(C)C[C@@]1(C(=O)O)C[C@H](C(=O)O)[C@H](c2nccs2)N1C(=O)c1ccc(C(F)(F)F)cc1" , what is its reported pIC50?
6.35

Given the molecule CC(C)C[C@@]1(C(=O)O)C[C@H](C(N)=O)[C@H](c2nccs2)N1C(=O)c1ccc(C(C)(C)C)cc1 (stereo in doubt; (+)32) , what is its reported pIC50?
7.15

Given the molecule "CC(C)C[C@@]1(C(=O)O)C[C@H](C(=O)NS(=O)(=O)Cc2ccccc2)[C@H](c2nccs2)N1C(=O)c1ccc(C(C)(C)C)cc1" , what is its reported pIC50?
6.26
